- targetOrSystem: Dihydrofolate reductase (Escherichia coli, UniProt P0ABQ4)
- experimentSummary: Inhibition constant for Tyr31-dihydrofolate reductase (DHFR)-NADPH-Compound complex
- Sequence (P0ABQ4 whole entry, looked up): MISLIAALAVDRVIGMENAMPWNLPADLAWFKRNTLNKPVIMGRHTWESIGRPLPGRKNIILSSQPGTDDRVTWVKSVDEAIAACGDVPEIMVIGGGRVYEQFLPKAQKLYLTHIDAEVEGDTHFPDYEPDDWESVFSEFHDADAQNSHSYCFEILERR
measuredProperty: Ki (nM)
Please give a number only; it is taken to be in nM.

Known value: Dihydrofolate reductase (Escherichia coli, UniProt P0ABQ4) Ki of the compound Cc1nc2nc(N)nc(N)c2nc1C equals 57

###

- targetOrSystem: Dihydrofolate reductase (Escherichia coli, UniProt P0ABQ4)
- experimentSummary: Thermodynamic Dissociation Constant for compound-Val31-dihydrofolate reductase (DHFR) complex at pH 8.5
measuredProperty: pKd
pKd is a log-scale quantity: -log10 of the concentration expressed in molar.

The value of pKd measured for the compound NC(=O)c1ccc[n+]([C@H]2O[C@@H](COP(=O)([O-])OP(=O)(O)OC[C@H]3O[C@@H](n4cnc5c(N)ncnc54)[C@H](OP(=O)(O)O)[C@@H]3O)[C@H](O)[C@@H]2O)c1 turned out to be 6.52

###

- targetOrSystem: Dihydrofolate reductase (Escherichia coli, UniProt P0ABQ4)
- experimentSummary: Inhibition constant for Phe31-dihydrofolate reductase (DHFR)-NADPH-Compound complex
- Sequence (P0ABQ4 whole entry): as the sequence (P0ABQ4 whole entry, looked up) above
measuredProperty: Ki (nM)
Please give a number only; it is taken to be in nM.

Known value: Dihydrofolate reductase (Escherichia coli, UniProt P0ABQ4) Ki of the molecule Cc1nc2nc(N)nc(N)c2nc1C equals 44

###

- targetOrSystem: Dihydrofolate reductase (Escherichia coli)
- experimentSummary: Thermodynamic Dissociation Constant for compound-Val31-dihydrofolate reductase (DHFR) complex at pH 7
Measured Kd of individual entries
Please give a number only; it is taken to be in nM.

{"columns": ["molSmiles", "targetOrSystem", "resultValue"],
 "data": [
  ["NC(=O)c1ccc[n+]([C@H]2O[C@@H](COP(=O)([O-])OP(=O)(O)OC[C@H]3O[C@@H](n4cnc5c(N)ncnc54)[C@H](OP(=O)(O)O)[C@@H]3O)[C@H](O)[C@@H]2O)c1", "Dihydrofolate reductase (Escherichia coli)", 220]
]}

# ---- query molecule ----
The value of Kd measured for the molecule Nc1nc2ncc(CNc3ccc(C(=O)N[C@@H](CCC(=O)O)C(=O)O)cc3)nc2c(=O)[nH]1 turned out to be 4800

###

Measured Kd of individual entries
- targetOrSystem: Dihydrofolate reductase (Escherichia coli)
- experimentSummary: Thermodynamic Dissociation Constant for compound-Tyr31-dihydrofolate reductase (DHFR) complex at pH 7
Please give a number only; it is taken to be in nM.

{"columns": ["molecule", "Kd [nM]"],
 "data": [
  ["Nc1nc2ncc(CNc3ccc(C(=O)N[C@@H](CCC(=O)O)C(=O)O)cc3)nc2c(=O)[nH]1 [FOLIC ACID]", 4400]
]}

# ---- query molecule ----
Known value: Dihydrofolate reductase (Escherichia coli) Kd of the molecule NC(=O)c1ccc[n+]([C@H]2O[C@@H](COP(=O)([O-])OP(=O)(O)OC[C@H]3O[C@@H](n4cnc5c(N)ncnc54)[C@H](OP(=O)(O)O)[C@@H]3O)[C@H](O)[C@@H]2O)c1 equals 340

###

- targetOrSystem: Dihydrofolate reductase (Escherichia coli)
- experimentSummary: Thermodynamic Dissociation Constant for compound-Phe31-dihydrofolate reductase (DHFR) complex at pH 8.5
measuredProperty: pKd
pKd is a log-scale quantity: -log10 of the concentration expressed in molar.

The value of pKd measured for the molecule NC(=O)c1ccc[n+]([C@H]2O[C@@H](COP(=O)([O-])OP(=O)(O)OC[C@H]3O[C@@H](n4cnc5c(N)ncnc54)[C@H](OP(=O)(O)O)[C@@H]3O)[C@H](O)[C@@H]2O)c1 turned out to be 6.31
